From: the supplement of paper PMC6763611

Measured growth inhibition values are reported for all entries that follow.
System: Plasmodium falciparum NF54
Test: growth inhibition relative to untreated control; higher = more inhibition
Conditions: 5 µM; minimal medium (MM); 72 h
measured.parameter: growth inhibition

>>> result("CCOc1ccc(-c2nc(CNCCc3ccc(F)cc3)cs2)cc1")
"27.2%"
>>> result("CCOC(=O)NC(=O)c1ccsc1NC(=O)c1nc2ccccc2s1")
"< 0%"
>>> result("CC(=O)N1CCN(c2ccc(Oc3ccc(Cl)cc3O)cc2)CC1")
"< 0%"
>>> result("O=C1COCc2ccc(Br)cc2N1Cc1ccc(C(F)(F)F)cc1")
"85.1%"
>>> result("CCCc1ccc(S(=O)(=O)Nc2ccc(CN3CCN(CC4CC4)CC3)cc2)cc1")
"86.7%"
>>> result("CCOC(=O)c1noc(N)c1-c1ccccc1")
"0.705%"
>>> result("COc1cc(NC(C)CCCN)c2ncccc2c1 (stereo unspecified)")
"38%"
>>> result("FC(F)(F)c1cc(NCCc2ccccc2)nc(-c2ccccn2)n1")
"< 0%"
>>> result("COc1cccc(-n2nnnc2S(=O)(=O)Cc2ccccc2)c1")
"< 0%"
>>> result("COc1cccc(NC(=O)c2c(NC(=O)c3cccnc3)sc3c2CCC3)c1")
"8.07%"
>>> result("Cc1ccc(S(=O)(=O)Nc2ccc(CN3CCN(C(=O)c4cccc(C#N)c4)CC3)cc2)cc1")
"< 0%"

* * *

Tested on: Plasmodium falciparum NF54
Assay: growth inhibition relative to untreated control; higher = more inhibition
Conditions: 5 µM; minimal medium (MM); 72 h
measured.parameter: growth inhibition (%)

>>> recorded_number("c1ccc(Oc2ccc(-c3cncc(-c4ccc5[nH]ccc5c4)n3)cc2)cc1")
91.5
>>> recorded_number("C[C@]1(O)C[C@@H](c2nc(-c3ccc4ccc(-c5ccccc5)nc4c3)c3c(N)nccn32)C1")
43.8
>>> recorded_number("c1ccc(C[C@@H]2CN(c3nccc(Oc4ccc(-n5ccnc5)cc4)n3)CCN2)cc1")
95.3
>>> recorded_number("CN1CCN(CCCOc2ncc(Nc3ncc(-c4ccc(C(F)(F)F)c(F)c4)nc3C(N)=O)cn2)CC1")
93.3
>>> recorded_number("O=C(Nc1nc(-c2ccccn2)cs1)C1CC1c1ccccc1F (stereo not given)")
26.1
>>> recorded_number("CS(=O)(=O)N1CCC(Cn2nc(Cc3cccc4ccccc34)c3c(N)ncnc32)CC1")
17.6
>>> recorded_number("O=C(c1ccc(F)cc1)N(CCNc1ccccc1)c1ccccc1")
4.16

* * *

System: Plasmodium falciparum NF54
Assay: growth inhibition relative to untreated control; higher = more inhibition
Settings: 1 µM; MM + chorismate end-products (CM screening medium); 72 h
growth inhibition class ranges: lower: < 20%; middle: ≥ 20% and < 80%; upper: ≥ 80%

>>> label_class("CNC(=O)c1cc(S(=O)(=O)N2CCN(c3ccccn3)CC2)cs1")
"upper"
>>> label_class("Cc1cc2nc(NC(=O)C(C)(C)C)nc(Cl)c2n1Cc1ccc(Cl)cc1")
"middle"
>>> label_class("O=C(OCc1ccccc1)N1CCC(c2cc(-c3ccncc3)c(-c3ccc(F)cc3)[nH]2)CC1")
"middle"
>>> label_class("Cc1cc(Nc2ccc(C(F)(F)F)cc2)n2ccnc2n1")
"upper"
>>> label_class("O=C(C1CCN(c2nnc(-n3cccc3)s2)CC1)N1CCC(Cc2ccccc2)CC1")
"lower"
>>> label_class("Cc1cc(NC(=O)c2ccc(Oc3ccc(Cl)cc3O)o2)no1")
"lower"
>>> label_class("FC(F)(F)c1cnc(Sc2nnc(-c3ccncc3)o2)c(Cl)c1")
"middle"
>>> label_class("OC[C@H]1O[C@@H](n2c3ccc(Cl)cc3c3c(-c4cc5ccccc5o4)ncnc32)C(O)[C@H]1O (stereo partly drawn)")
"lower"
>>> label_class("Clc1ccc(Cl)c(CO[C@H]2CCCC[C@@H]2n2ccnc2)c1")
"lower"
>>> label_class("COc1ccc(C2=NCCN2)cc1-c1cn(-c2cccc(C3=NCCN3)c2)nn1")
"upper"
>>> label_class("CN(C)c1cc(NC(=O)Nc2ccccc2)c2ccccc2n1")
"upper"
>>> label_class("CC(=O)N1CCN(c2ccc(Oc3ccc(Cl)cc3O)cc2)CC1")
"middle"
>>> label_class("CCn1ncc2c(NC3CCOCC3)c(CNC(=O)c3ccnn3C)c(C)nc21")
"middle"
>>> label_class("CC(C)C(Oc1cccc2ccccc12)C(=O)O (stereo not drawn)")
"lower"
>>> label_class("NC(=O)c1cc(-c2ccsc2)ccc1OCCOc1ccccc1")
"lower"
>>> label_class("CC(C)NCC(=O)Nc1cccc(C(=O)Nc2cccc(C(F)(F)F)c2)c1")
"middle"
>>> label_class("O=C(Nc1ccccc1-c1nc2c(C(=O)O)cccc2o1)c1ccccc1")
"lower"
>>> label_class("COc1ccc(-c2nnc3ccc(-c4cccc(C(C)C)c4)cn23)cc1OC")
"lower"
>>> label_class("c1ccc(Oc2ccc(-c3cncc(-c4ccc5[nH]ccc5c4)n3)cc2)cc1")
"upper"
>>> label_class("Oc1c(I)cc(I)c2cccnc12")
"middle"
>>> label_class("CCCCOC(=O)Nc1cc2nc(C3CCCCC3)[nH]c2cc1N1CCCC1")
"lower"
>>> label_class("Nc1ncnc2c1c(Cc1cccc3ccccc13)nn2CC1CCNCC1")
"lower"
>>> label_class("CNc1nnc(Sc2cnn(-c3ccccc3)c(=O)c2Cl)s1")
"middle"
>>> label_class("O=C(NC1=NCCS1)c1sc2cc(F)ccc2c1Cl")
"middle"
>>> label_class("CC1=NN(c2nc3ccccc3s2)C(=O)C1Cc1cccc2ccccc12 (stereo not drawn)")
"lower"
>>> label_class("CC(C)(C)C(=O)N(CCCCCCN1C[C@H](O)[C@@H](O)[C@H](O)[C@H]1CO)C1CCCCCC1")
"middle"
>>> label_class("CC(C)c1ncc(-c2ccncc2)c([C@H]2CC[C@H](CNC(=O)c3cccnc3)CC2)n1")
"middle"
>>> label_class("Clc1ccc(CN2CCN(C3=NCCN3)CC2)cc1Cl")
"lower"
>>> label_class("Cc1c[nH]c(CCNC(=O)c2cc(-c3ccc(Cl)cc3)cs2)n1")
"upper"
>>> label_class("c1ccc2c(c1)CN(CC1CC1)CC1(CCN(Cc3c[nH]c4cnccc34)CC1)O2")
"upper"
>>> label_class("O=C(Nc1ccc(C(F)(F)F)c(C(F)(F)F)c1)c1cc(Cl)ccc1O")
"upper"
>>> label_class("O=S(=O)(c1ccc(Cl)cc1)N1CCN(C(=S)NCc2ccco2)CC1")
"upper"
>>> label_class("Cc1ccc2[nH]c(C3CCCNC3)c(-c3ccncc3)c2c1 (stereo not drawn)")
"upper"
>>> label_class("O=C(N[C@H](Cc1ccccc1)C(=O)Nc1ccccc1N1CCOCC1)c1cccs1")
"lower"
>>> label_class("COc1cc(NC(=O)Cc2nn(C)c(=O)c3ccccc23)ccc1Cl")
"lower"
>>> label_class("c1cncc(NCc2ccc(-c3cc4ccncc4cc3OC3CCNCC3)s2)c1")
"upper"
>>> label_class("CCCCN(CCCC)c1c(C#N)cc(S(=O)(=O)Nc2ccccc2)cc1C#N")
"lower"
>>> label_class("Cc1cc(O)nc(-n2nc(C)cc2C)n1")
"lower"
>>> label_class("CC(C)n1ncc2c(C(=O)NCC(c3cccs3)N3CCOCC3)cc(-c3ccccc3)nc21 (stereo not drawn)")
"lower"
>>> label_class("NCC(=O)N1CCn2c(nc(-c3ccccc3)c2Nc2ccc3c(c2)OCO3)C1")
"upper"
>>> label_class("Cc1ccc2cc(C3NC(=O)c4ccccc4N3)c(Cl)nc2c1 (stereo not drawn)")
"upper"
>>> label_class("COc1ccc(C2=NN(C3CCCCCC3)C(=O)C2(C)C)cc1OCCCCOc1ccc(-c2nn[nH]n2)cc1")
"middle"
>>> label_class("O=C1[C@@H](Oc2ccccc2)[C@@H](c2ccc(Cl)cc2)N1CCn1cnc2c(NCc3ccccc3)ncnc21")
"lower"
